target: HCV glycoprotein E1E2-mediated membrane fusion (Hepatitis C virus genotype 1a, UniProt P27958); assay: cell-based; assay type: cell-based, Hepatitis C virus (strain H77); settings: Cre/stop fusion system, peptide 1 µM, luciferase divided by solvent control (0.5% DMSO)
Sequence (P27958 384-746): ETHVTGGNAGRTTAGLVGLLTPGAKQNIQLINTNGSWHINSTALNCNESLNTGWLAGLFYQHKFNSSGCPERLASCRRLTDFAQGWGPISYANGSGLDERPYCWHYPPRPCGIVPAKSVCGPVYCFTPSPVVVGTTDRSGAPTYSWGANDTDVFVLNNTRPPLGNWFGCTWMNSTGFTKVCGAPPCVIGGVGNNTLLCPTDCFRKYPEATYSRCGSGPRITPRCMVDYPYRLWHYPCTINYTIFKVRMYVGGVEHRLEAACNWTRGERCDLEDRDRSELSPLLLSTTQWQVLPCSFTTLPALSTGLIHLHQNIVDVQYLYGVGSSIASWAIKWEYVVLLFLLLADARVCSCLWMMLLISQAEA
Sequence (P27958 192-383): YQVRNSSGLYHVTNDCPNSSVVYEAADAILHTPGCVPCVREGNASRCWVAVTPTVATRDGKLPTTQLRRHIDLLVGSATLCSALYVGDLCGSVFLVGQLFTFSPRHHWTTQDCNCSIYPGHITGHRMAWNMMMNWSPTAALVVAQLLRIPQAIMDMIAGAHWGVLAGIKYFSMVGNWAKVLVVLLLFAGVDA
MEASUREMENT TYPE: % of fusion (%)
Please reply with the bare figure in % and do not write the unit itself.

RP CGIVP AAQVC GP VYCFTP SPVVVGTTDR [HCV-21, 30-mer of overlapping E1E2 peptide library] :: 63.7
LFSP GSSQKIQLVNTNGS WHI NRTALNCND [HCV-15, 30-mer of overlapping E1E2 peptide library] :: 56.0
YCFTP SPVVVGTTDRF GVP TYSWGENETDV [HCV-22, 30-mer of overlapping E1E2 peptide library] :: 79.0
GSVFLVAQLFTFSPRRHETVQDCNCSIYPG [HCV-7, 30-mer of overlapping E1E2 peptide library] :: 85.5

Record AGLAYYSMVGNWAKVLIVMLLF AGVDGGTY [HCV-12, 30-mer of overlapping E1E2 peptide library] , field % of fusion: 122.8

Record IDAF AQGWGP ITYNESHSSDQRP YCWHYAP [HCV-19, 30-mer of overlapping E1E2 peptide library] , field % of fusion: 129.8

Record CSNASIVYEAADMIMHTP GC VP CVRENNSS [HCV-2, 30-mer of overlapping E1E2 peptide library] , field % of fusion: 80.8

Record FKVRMYVGGVEHRLE AACNWTRGERCNLED [HCV-30, 30-mer of overlapping E1E2 peptide library] , field % of fusion: 99.6

Record FGVP TYSWGENE TDVLLLNNTRPP QGNWFG [HCV-23, 30-mer of overlapping E1E2 peptide library] , field % of fusion: 145.0

Record SHSSDQRP YCWHYAP RP CGI VP AAQVC GP V [HCV-20, 30-mer of overlapping E1E2 peptide library] , field % of fusion: 65.8

Record HTP GCVP CVRENNSSRCWVALTP TLAAR NA [HCV-3, 30-mer of overlapping E1E2 peptide library] , field % of fusion: 64.3

Record AAC NW TR GERCN LEDRDRS E LS P LLLS TTE [HCV-31, 30-mer of overlapping E1E2 peptide library] , field % of fusion: 56.9

Record EYVLLLFLLLADARVCACLWMMLLIAQAEA [HCV-36, 30-mer of overlapping E1E2 peptide library] , field % of fusion: 10.7

Record HVTGHRMAWDMMMNWSP TAALVVSQLLRIP [HCV-9, 30-mer of overlapping E1E2 peptide library] , field % of fusion: 56.9

* * *

test system: HCVcc (Jc1-luc); settings: Huh7.5.1 cells, various concentration ratios, CalcuSyn
MEASUREMENT TYPE: effect on inhibition of HCV infection in combination with E27

CC(C)OC(=O)[C@H](C)N[P@](=O)(OC[C@H]1O[C@@H](n2ccc(=O)[nH]c2=O)[C@](C)(F)[C@@H]1O)Oc1ccccc1 [Sofosbuvir] :: slight antagonism
COc1ccc2c(O[C@@H]3C[C@H]4C(=O)N[C@]5(C(=O)NS(=O)(=O)C6CC6)C[C@H]5/C=C\CCCCN(C)C(=O)[C@@H]4C3)cc(-c3nc(C(C)C)cs3)nc2c1C [Simeprevir] :: slight antagonism
